All values here come from the RNAGym collection of RNA variant scans (doi:10.7554/elife.80360).

B1: Twister Ribozyme (parent)
chain: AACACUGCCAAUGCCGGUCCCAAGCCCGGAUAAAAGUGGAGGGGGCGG

Variants of: B1
Assay comment: self-cleavage, relative activity (ratio to wild type); higher = more cleavage; co-transcriptional
Listed variants paired with reported self-cleavage
Please state the value as a number alone, without comment.

Here's what some known entries look like.
Query: Which self-cleavage is reported for this variant? A2G C3A
Response: 0.171

Query: Now the same for "A2C"
Response: 0.0941

Query: Now the same for A35U A40U
Response: 0.253

Query: Now the same for A10U U12C
Response: 0.931

Query: Now the same for C8U C19U
Response: 0.35

Query: Now the same for G45C G48A
Response: 0.628

Query: Now the same for C20U G42U
Response: 0.399

Query: Now the same for G16C U31C
Response: 0.429

Further cases:
Query: Which self-cleavage is reported for this variant? C27U G41C
Response: 0.176

Query: Now the same for U6G A32C
Response: 0.419

Query: Now the same for G29A G39U
Response: 0.232

Query: Now the same for A22G G28C
Response: 0.215

Query: Now the same for C9U U31C
Response: 0.708

Query: Now the same for C9A U37A
Response: 0.233

Query: Now the same for A10C G24A
Response: 0.0991

Query: Now the same for C5U G16U
Response: 0.459

Query: Now the same for C21G G39C
Response: 0.128

Query: Now the same for A10C C19A
Response: 0.214

Query: Now the same for U6G G45A
Response: 0.141
